target: MK2 (Homo sapiens); test: MK2 degradation in human SW1353 cells (MSD, 24 h); type: cell-based; design: endogenous in cells; host or cells: SW-1353 (ATCC HTB-94); conditions: read-out: MK2 MSD SW1353 degradation 24 h GMean External Abs DC50
Sequence (P49137 whole entry): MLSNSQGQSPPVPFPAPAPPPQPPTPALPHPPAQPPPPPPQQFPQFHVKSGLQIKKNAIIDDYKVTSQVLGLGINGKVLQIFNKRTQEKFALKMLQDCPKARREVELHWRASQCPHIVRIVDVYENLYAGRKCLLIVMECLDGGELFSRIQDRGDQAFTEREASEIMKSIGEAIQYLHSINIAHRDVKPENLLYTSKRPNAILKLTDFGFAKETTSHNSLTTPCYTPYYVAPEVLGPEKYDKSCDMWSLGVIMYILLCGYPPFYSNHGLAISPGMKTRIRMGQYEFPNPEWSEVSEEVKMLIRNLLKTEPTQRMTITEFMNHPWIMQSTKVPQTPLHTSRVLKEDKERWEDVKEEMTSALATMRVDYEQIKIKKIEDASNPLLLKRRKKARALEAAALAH
Item-by-item account of DC50

Look over these answered cases.
1) C[C@@H]1CNc2c(sc3ccc4nc(N5CCN(CC6CCC7(CC6)CN(c6ccc8c(N9CCC(=O)NC9=O)cncc8c6)C7)CC5)ccc4c23)C(=O)N1 :: < 1 nM
2) Cn1c(=O)n(C2CCC(=O)NC2=O)c2ccc(N3CC(CN4CCN(c5ccc(-c6nccc(-c7cc8c([nH]7)C7(CC7)CNC8=O)n6)cc5C#N)CC4)C3)cc21 (centres unmarked) :: < 1 nM
3) Cn1c(=O)n(C2CCC(=O)NC2=O)c2ccc(N3CC(CN4CCN(c5ccc(-c6nccc(-c7cc8c([nH]7)C7(CC7)CNC8=O)n6)cc5C5CC5)CC4)C3)cc21 (centres unmarked) :: 10 to 100 nM
4) Cn1c(=O)n(C2CCC(=O)NC2=O)c2ccc(N3CC(CN4CCN(c5ccc(-c6cc(-c7cc8c(o7)C7(CC7)CNC8=O)ccn6)cc5)CC4)C3)cc21 (centres unmarked) :: < 1 nM

Query: Quickly give me recorded DC50 for C[C@@H]1CNc2c(sc3ccc4nc(N5CCC(N(CC(F)(F)F)C6CC7(CCN(c8ccc9c(c8)n(C)c(=O)n9C8CCC(=O)NC8=O)CC7)C6)CC5)ccc4c23)C(=O)N1 (some centres unmarked)
Response: 1 to 10 nM

Query: Look up and state reported DC50 for Cn1c(=O)n(C2CCC(=O)NC2=O)c2ccc(N3CC(CN4CCC(N5CCN(c6nccc(-c7cc8c([nH]7)C7(CC7)CNC8=O)n6)CC5)CC4)C3)cc21 (centres unmarked)
Response: > 100 nM

Query: Using known records, supply DC50 for C[C@@H]1CNc2c(sc3ccc4nc(N5CCN(CC6CC7(CCN(c8ccc9c(N%10CCC(=O)NC%10=O)cncc9c8)CC7)C6)CC5)ccc4c23)C(=O)N1
Response: < 1 nM

Query: Determine from records and report DC50 for C[C@@H]1CNc2c(sc3ccc4nc(N5CCN(C[C@H]6C[C@@]7(CCN(c8ccc9c(c8)n(C)c(=O)n9C8CCC(=O)NC8=O)C7)C6)CC5)ccc4c23)C(=O)N1 (some centres unmarked)
Response: < 1 nM

Query: For Cn1c(=O)n(C2CCC(=O)NC2=O)c2ccc(N3CCN(CC#Cc4ccc(-c5nccc(-c6cc7c([nH]6)C6(CC6)CNC7=O)n5)cc4)CC3)cc21 (centres unmarked) , write its DC50.
Response: 1 to 10 nM

Query: Report measured DC50; entry is Cn1c(=O)n(C2CCC(=O)NC2=O)c2ccc(N3CC(CN4CCC(n5cc(-c6nccc(-c7cc8c([nH]7)C7(CC7)CNC8=O)n6)cn5)CC4)C3)cc21 (centres unmarked)
Response: > 100 nM

Query: Write down DC50 measured for item C[C@@H]1CNc2c(sc3ccc4nc(N5CCN(C[C@H]6C[C@]7(CCN(c8ccc9c(c8)n(C)c(=O)n9C8CCC(=O)NC8=O)C7)C6)CC5)ccc4c23)C(=O)N1 (some centres unmarked)
Response: < 1 nM

====

Each entry below carries its reported DC50.
target: MK2 (Homo sapiens); test: MK2 degradation in human THP-1 monocytic cells (MSD, 24 h); assay type: cell-based; set-up: endogenous in cells; conditions: THP-1 cells, read-out: MK2 MSD THP-1 degradation 24 h GMean External Abs DC50

Worked cases, DC50 given:
1) Cn1c(=O)n(C2CCC(=O)NC2=O)c2cccc(N3CCC(N4CCN(c5ccc(-c6nccc(-c7cc8c([nH]7)C7(CCCC7)CNC8=O)n6)cc5)CC4)C3)c21 (stereo not drawn) :: 1 to 10 nM
2) C[C@@H]1CNc2c(sc3ccc4nc(N5CCC(CN6CCC(N7CC(c8ccc9c(c8)n(C)c(=O)n9C8CCC(=O)NC8=O)C7)CC6)CC5)ccc4c23)C(=O)N1 (stereo partly drawn) :: < 1 nM

Query: Enter recorded DC50 with MK2 (Homo sapiens) for C[C@@H]1CNc2c(sc3ccc4nc(N5CCC(N(CC(F)(F)F)C6CC7(CCN(c8ccc9c(c8)n(C)c(=O)n9C8CCC(=O)NC8=O)CC7)C6)CC5)ccc4c23)C(=O)N1 (stereo partly drawn) here.
Response: < 1 nM

Data origin: patent US20260125397A1
